# tgt: Tyrosine-protein kinase JAK2 (Homo sapiens)
# assayRemarks: Inhibition of Jak2 (unknown origin) assessed as inhibition of STAT5 phosphorylation by cell-based assay
pIC50: −log10 of the molar value.
Kindly return y if reported pIC50 is no lower than 7; return n if it is lower.

Solved cases (3 shown):
# inputSmiles, className
records = [
    ("CC(C)(O)c1cc(Cl)c(Nc2nc3ccncc3c3c(=O)[nH]ccc23)c(Cl)c1", "y"),
    ("CC(C)[C@H](Nc1nc2ccncc2c2c(=O)[nH]ccc12)C(F)(F)F", "n"),
    ("O=c1[nH]ccc2c(Nc3c(Cl)cc(C(F)(F)F)cc3Cl)nc3ccncc3c12", "y"),
]

Okay, now this compound:
Quick check: does `O=c1[nH]ccc2c(Nc3c(Cl)cncc3Cl)nc3ccncc3c12` have pIC50 greater than or equal to 7? y

====

# Lookup of reported pIC50 keyed by entry
# Test system: Mus musculus
# assayRemarks: Inhibition of Jak2 (unknown origin) in po dosed […] mouse assessed as inhibition of STAT5 phosphorylation measured after 1 to 8 hrs of dosing by PK/PD assay
# Type: functional, organism-based
# conditionContext: Mus musculus, C56bl/6; read-out: IC50
pIC50 is a log-scale quantity: -log10 of the concentration expressed in molar.

Recorded pIC50, per entry:
# compound, tgt, pIC50
data = [
    ("O=c1[nH]ccc2c(Nc3c(F)cc(F)cc3Cl)nc3ccncc3c12", "Mus musculus", 5.64),
    ("O=c1[nH]ccc2c(Nc3c(Cl)cc(C(O)C(F)F)cc3Cl)nc3ccncc3c12 (centres undefined)", "Mus musculus", 5.89),
    ("CC(C)(O)c1cc(Cl)c(Nc2nc3ccncc3c3c(=O)[nH]ccc23)c(Cl)c1", "Mus musculus", 5.92),
]

Now consider a different compound.
Would you mind telling me what pIC50 value was observed for CC(O)c1cc(Cl)c(Nc2nc3ccncc3c3c(=O)[nH]ccc23)c(Cl)c1 (centres undefined) ? 6.40

====

# tgt: Tyrosine-protein kinase JAK2 (Homo sapiens, UniProt O60674)
# Sequence (O60674 whole entry): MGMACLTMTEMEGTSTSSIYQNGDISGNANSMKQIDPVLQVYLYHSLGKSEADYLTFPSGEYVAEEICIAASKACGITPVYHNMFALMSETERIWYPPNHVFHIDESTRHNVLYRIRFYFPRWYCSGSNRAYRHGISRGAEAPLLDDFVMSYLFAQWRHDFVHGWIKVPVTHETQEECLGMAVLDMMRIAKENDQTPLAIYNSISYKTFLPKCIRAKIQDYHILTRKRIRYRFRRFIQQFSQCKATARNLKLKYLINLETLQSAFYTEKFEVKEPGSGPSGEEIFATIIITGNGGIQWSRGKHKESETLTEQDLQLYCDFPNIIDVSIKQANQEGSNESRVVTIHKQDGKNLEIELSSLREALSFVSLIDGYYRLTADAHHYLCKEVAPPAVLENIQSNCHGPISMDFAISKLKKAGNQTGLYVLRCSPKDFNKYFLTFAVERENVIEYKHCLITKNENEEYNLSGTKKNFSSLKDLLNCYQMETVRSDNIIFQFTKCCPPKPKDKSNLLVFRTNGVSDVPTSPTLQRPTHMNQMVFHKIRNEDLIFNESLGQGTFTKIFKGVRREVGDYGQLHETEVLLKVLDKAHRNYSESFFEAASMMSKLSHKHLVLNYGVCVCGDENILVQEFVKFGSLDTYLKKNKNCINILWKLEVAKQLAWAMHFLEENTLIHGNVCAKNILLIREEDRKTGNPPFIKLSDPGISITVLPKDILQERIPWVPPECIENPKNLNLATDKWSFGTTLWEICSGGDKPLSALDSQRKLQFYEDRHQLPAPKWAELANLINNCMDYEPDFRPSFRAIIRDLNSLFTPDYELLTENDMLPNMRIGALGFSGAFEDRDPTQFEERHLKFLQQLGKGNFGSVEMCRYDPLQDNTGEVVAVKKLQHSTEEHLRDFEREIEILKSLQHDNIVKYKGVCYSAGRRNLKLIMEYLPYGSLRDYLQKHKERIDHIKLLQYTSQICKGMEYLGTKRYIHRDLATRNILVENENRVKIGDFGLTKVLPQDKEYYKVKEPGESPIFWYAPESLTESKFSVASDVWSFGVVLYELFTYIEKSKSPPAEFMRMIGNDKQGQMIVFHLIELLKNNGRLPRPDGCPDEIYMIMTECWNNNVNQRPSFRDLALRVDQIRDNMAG
# assayRemarks: Inhibition of Jak2 (unknown origin) assessed as inhibition of STAT5 phosphorylation by cell-based assay
outcomeMeasure: pIC50
pIC50 is a log-scale quantity: -log10 of the concentration expressed in molar.

Would you mind telling me what pIC50 value was observed for `O=c1[nH]ccc2c(Nc3c(Cl)cc(F)cc3Cl)nc3ccncc3c12` ? 7.85

Also `NS(=O)(=O)c1cc(Cl)c(Nc2nc3ccncc3c3c(=O)[nH]ccc23)c(Cl)c1` , if possible. 6.95

Also `O=c1[nH]ccc2c(Nc3c(F)cccc3C(F)(F)F)nc3ccncc3c12` , if possible. 7.05

Also `O=c1[nH]ccc2c(Nc3c(F)cc(F)cc3Cl)nc3ccncc3c12` , if possible. 7.82

Also `O=c1[nH]ccc2c(Nc3c(F)cc(F)cc3F)nc3ccncc3c12` , if possible. 7.05

====

# assayRemarks: Half life in rat
# Format: ADME, organism-based
# conditionContext: in vivo
outcomeMeasure: half-life (min)
Use min as the unit, but write only the number.

Would you mind telling me what half-life value was observed for `O=c1[nH]ccc2c(Nc3c(F)cc(F)cc3Cl)nc3ccncc3c12` ? 48

====

# Lookup of reported fraction unbound keyed by entry
# assayRemarks: Plasma protein binding in rat
# Format: ADME, cell-free
# conditionContext: read-out: PPB (converted)

Recorded fraction unbound, per entry:
# molecule, fraction unbound
data = [
    ("CC(O)c1cc(Cl)c(Nc2nc3ccncc3c3c(=O)[nH]ccc23)c(Cl)c1 (stereo not given)", 0.048),
    ("CC(C)(O)c1cc(Cl)c(Nc2nc3ccncc3c3c(=O)[nH]ccc23)c(Cl)c1", 0.026),
    ("O=c1[nH]ccc2c(Nc3c(Cl)cc(C(O)C(F)F)cc3Cl)nc3ccncc3c12 (stereo not given)", 0.028),
    ("O=c1[nH]ccc2c(Nc3c(Cl)cc(-c4ccn[nH]4)cc3Cl)nc3ccncc3c12", 0.001),
]

Would you mind telling me what fraction unbound value was observed for `O=c1[nH]ccc2c(Nc3c(F)cc(F)cc3Cl)nc3ccncc3c12` ? 0.048

Each recorded value in this set is attributed to ChEMBL document CHEMBL3124786.
